// reported activation at 10 µM for each item listed
- Assay Target: rat-species vanilloid receptor 1 (VR1/TRPV1) (Rattus norvegicus)
- Construct: endogenous in cells; host or cells: primary cells dissociated from rat dorsal root ganglia (DRG)
- Sequence (O35433 whole entry): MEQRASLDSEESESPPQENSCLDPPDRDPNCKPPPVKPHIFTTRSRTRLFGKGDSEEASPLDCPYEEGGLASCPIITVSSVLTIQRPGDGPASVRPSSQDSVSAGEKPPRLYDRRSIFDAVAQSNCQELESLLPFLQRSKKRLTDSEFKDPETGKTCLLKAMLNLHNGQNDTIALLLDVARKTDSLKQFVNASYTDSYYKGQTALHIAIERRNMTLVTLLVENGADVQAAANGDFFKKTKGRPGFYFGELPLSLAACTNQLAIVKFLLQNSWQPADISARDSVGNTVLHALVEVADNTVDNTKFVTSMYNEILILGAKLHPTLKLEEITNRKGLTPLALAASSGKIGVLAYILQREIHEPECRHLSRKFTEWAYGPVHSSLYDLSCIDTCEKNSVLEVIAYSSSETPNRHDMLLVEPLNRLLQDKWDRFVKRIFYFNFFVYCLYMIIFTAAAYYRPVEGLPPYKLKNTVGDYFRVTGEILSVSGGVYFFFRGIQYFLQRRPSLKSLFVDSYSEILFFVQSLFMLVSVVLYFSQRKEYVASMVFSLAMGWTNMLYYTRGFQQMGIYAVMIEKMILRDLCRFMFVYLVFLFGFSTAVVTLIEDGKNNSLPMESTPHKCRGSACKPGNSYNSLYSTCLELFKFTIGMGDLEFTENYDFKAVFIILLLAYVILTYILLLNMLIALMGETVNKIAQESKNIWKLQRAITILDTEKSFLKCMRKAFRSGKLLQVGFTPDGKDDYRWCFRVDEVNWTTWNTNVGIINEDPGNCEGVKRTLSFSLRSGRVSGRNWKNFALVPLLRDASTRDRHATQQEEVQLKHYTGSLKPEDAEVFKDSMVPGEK
- Test Protocol: Functional testing on vanilloid receptor 1 (VR1/TRPV1): FLIPR Ca2+ inflow assay in rat dorsal root ganglia cells (% activation / % inhibition vs capsaicin)
- Type: cell-based
- Study Conditions: stimulation compared to 10 μM CP (capsaicin)
Use % as the unit, but write only the number.

Below, 3 compounds whose answers are already recorded.
Compound	Quantity	Measured Number
COc1cccc(C2=NOC3(CCN(C(=O)Nc4ccc(SC)cc4)CC3)C2)c1 [Compound 65]	activation at 10 µM	0.08
CC(C)(C)c1ccc(NC(=O)N2CCC3(CC2)CC(c2ccccc2)=NO3)cc1 [Compound 141]	activation at 10 µM	0.42
CC(C)(C)c1ccc(NC(=O)N2CCC3(CC(c4ccccc4)=NO3)C2)cc1 (stereo not shown) [Compound 371]	activation at 10 µM	35

Let us move to another entry and its activation at 10 µM.
input: # get_value(readout='activation at 10 µM', item= CCc1ccc(NC(=O)N2CCC3(CC2)CC(c2ccc(Cl)cc2)=NO3)cc1 [Compound 164] )
output: -0.43
